B1: CDC34 (parent)
chain: GGYFKARLKFPIDYPYSPPAFRFL

variants of: B1; test: protein stability index of a GFP-peptide fusion (GPS, HEK-293T) (PSI 1-6); higher = more stable; details: c terminus: a fixed tail appended;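 note: lentivirally expressed fusions sorted by FACS into six bins by GFP to DsRed ratio, PSI derived from sequencing read proportions per bin multiplied by bin number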
property: protein stability index

[
  {
    "entry_sequence": "GDYFKARLKFPIDYPYSPPAFRFL [G2D]",
    "test_result": 2.29
  },
  {
    "entry_sequence": "GGYFKGRLKFPIDYPYSPPAFRFL [A6G]",
    "test_result": 3.12
  },
  {
    "entry_sequence": "GYYFKARLKFPIDYPYSPPAFRFL [G2Y]",
    "test_result": 3
  },
  {
    "entry_sequence": "GGYFKARLKFPIDYPYQPPAFRFL [S17Q]",
    "test_result": 2.58
  },
  {
    "entry_sequence": "GGYFKTRLKFPIDYPYSPPAFRFL [A6T]",
    "test_result": 2.76
  },
  {
    "entry_sequence": "GGYFKARLTFPIDYPYSPPAFRFL [K9T]",
    "test_result": 2.11
  },
  {
    "entry_sequence": "GGYFKARLKFPIDYPYEPPAFRFL [S17E]",
    "test_result": 3.71
  },
  {
    "entry_sequence": "GGVFKARLKFPIDYPYSPPAFRFL [Y3V]",
    "test_result": 2.61
  },
  {
    "entry_sequence": "GGYFKARLKFPIDYPYSPPAFHFL [R22H]",
    "test_result": 2.87
  },
  {
    "entry_sequence": "GGAFKARLKFPIDYPYSPPAFRFL [Y3A]",
    "test_result": 2.68
  },
  {
    "entry_sequence": "YGYFKARLKFPIDYPYSPPAFRFL [G1Y]",
    "test_result": 2.68
  },
  {
    "entry_sequence": "GGYFKARLKFPIDYPYSPEAFRFL [P19E]",
    "test_result": 2.21
  },
  {
    "entry_sequence": "GGYFKARLKFPIDYPCSPPAFRFL [Y16C]",
    "test_result": 2.73
  },
  {
    "entry_sequence": "GGYFKARLKFEIDYPYSPPAFRFL [P11E]",
    "test_result": 2.75
  },
  {
    "entry_sequence": "GGYFKARLKFPIDYMYSPPAFRFL [P15M]",
    "test_result": 3.04
  },
  {
    "entry_sequence": "DGYFKARLKFPIDYPYSPPAFRFL [G1D]",
    "test_result": 1.94
  },
  {
    "entry_sequence": "GGYFNARLKFPIDYPYSPPAFRFL [K5N]",
    "test_result": 2.89
  },
  {
    "entry_sequence": "GGYFKARLKFPNDYPYSPPAFRFL [I12N]",
    "test_result": 2.22
  },
  {
    "entry_sequence": "GGYDKARLKFPIDYPYSPPAFRFL [F4D]",
    "test_result": 2
  },
  {
    "entry_sequence": "GGYFKARLKFPIDYPYSFPAFRFL [P18F]",
    "test_result": 2.42
  },
  {
    "entry_sequence": "GGYFKARLKFPIDYPYSPIAFRFL [P19I]",
    "test_result": 2.56
  },
  {
    "entry_sequence": "GQYFKARLKFPIDYPYSPPAFRFL [G2Q]",
    "test_result": 2.77
  },
  {
    "entry_sequence": "GGYFKARLKFDIDYPYSPPAFRFL [P11D]",
    "test_result": 2.06
  },
  {
    "entry_sequence": "GGYFAARLKFPIDYPYSPPAFRFL [K5A]",
    "test_result": 2.24
  },
  {
    "entry_sequence": "GGYAKARLKFPIDYPYSPPAFRFL [F4A]",
    "test_result": 2.97
  }
]
